The origin of these recorded values is paper PMC4336329.

target system: human ether-à-go-go-related gene (hERG) potassium channel (human);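 also: peak tail current of the secondary pulse compared with the same well before compound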
assay summary: primary screen, population patch clamp on CHO cells stably expressing hERG; higher = less effect of the substance
Among all 310,000 compounds or so, about 14,000 (4.5%) showed an effect of 50% or more. Effects have a minus sign here. Shown is part of a subset that was picked to be rich in strong results.
measured property: hERG current change (%, negative = inhibition) at 10uM (%)
Please reply with the bare figure in % and do not write the unit itself.

[[record]]
compound = "Cc1c(NC(=O)CN2CCN(c3ccc(O)cc3)CC2)c(=O)n(-c2ccccc2)n1C"
target_system = "human ether-à-go-go-related gene (hERG) potassium channel (human)"
test_result = 21

[[record]]
compound = "CCOc1cc(OCC)nc(S(C)(=O)=O)n1"
target_system = "human ether-à-go-go-related gene (hERG) potassium channel (human)"
test_result = -0.891

[[record]]
compound = "O=C(CN1CCN(c2ccccc2)CC1)Nc1cccc([N+](=O)[O-])c1"
target_system = "human ether-à-go-go-related gene (hERG) potassium channel (human)"
test_result = 2.69

[[record]]
compound = "N#CCc1c(C#N)c(N)nc(N2CCN(S(=O)(=O)c3ccccc3)CC2)c1C#N"
target_system = "human ether-à-go-go-related gene (hERG) potassium channel (human)"
test_result = -0.357

[[record]]
compound = "S=C1NC(c2ccccc2)=CC(c2ccccc2)N1 (centres unmarked)"
target_system = "human ether-à-go-go-related gene (hERG) potassium channel (human)"
test_result = 6.64

[[record]]
compound = "O=C(C1CCN(S(=O)(=O)c2ccc(Cl)cc2)CC1)N1CCCCCCC1"
target_system = "human ether-à-go-go-related gene (hERG) potassium channel (human)"
test_result = -16.1

[[record]]
compound = "COC/C=C/C1=CC2=CC(=O)C(C)(OC(=O)c3cnc4ccccc4n3)C(=O)C2=CN1Cc1ccco1 (centres unmarked)"
target_system = "human ether-à-go-go-related gene (hERG) potassium channel (human)"
test_result = 0.0609

[[record]]
compound = "CSCCC1NC(=O)N(CC(=O)N2CCc3ccccc3C2)C1=O (centres unmarked)"
target_system = "human ether-à-go-go-related gene (hERG) potassium channel (human)"
test_result = -1.18

[[record]]
compound = "O=C(Oc1ccc2ccccc2c1)c1cncc(Br)c1"
target_system = "human ether-à-go-go-related gene (hERG) potassium channel (human)"
test_result = -11.6

[[record]]
compound = "CCN=C(Nc1ccc(Cl)cc1)c1cccnc1"
target_system = "human ether-à-go-go-related gene (hERG) potassium channel (human)"
test_result = -2.16


Task: Return value of hERG current change (%, negative = inhibition) at 10uM for input OCC1CCCN(C(=S)NCCc2ccccc2)C1 (centres unmarked) , no commentary.
Output: 0.885

Task: State its hERG current change (%, negative = inhibition) at 10uM: Cc1cc(NS(=O)(=O)c2ccc(NC(=O)N[C@H](C(=O)O)C(C)C)cc2)no1
Output: 29.3

Task: Give reported hERG current change (%, negative = inhibition) at 10uM value for CCc1ccccc1NC(=O)CSc1nc(-c2ccccc2)nn1C(=O)c1cccc([N+](=O)[O-])c1
Output: -0.129

Task: Consider the compound Cc1c(NC(=O)CN2CCN(c3ccccc3)CC2)c(=O)n(-c2ccccc2)n1C . State its measured hERG current change (%, negative = inhibition) at 10uM.
Output: 9.86

Task: Give hERG current change (%, negative = inhibition) at 10uM for the following compound: CS(=O)(=O)c1ccc2nc(NC(=O)c3cc(-c4ccccc4)nn3-c3ccccc3)sc2c1
Output: 8.38

Task: Consider the compound O=C(CN1CCN(c2ccccc2)CC1)Nc1nccs1 and give its recorded hERG current change (%, negative = inhibition) at 10uM.
Output: 5.11

Task: Fill in hERG current change (%, negative = inhibition) at 10uM for record C/C(=N\NC(=O)C1(C)CC1(Br)Br)c1ccc(NC(=O)C2CCC2)cc1 (centres unmarked)
Output: 7.51

Task: Return reported hERG current change (%, negative = inhibition) at 10uM. Input compound: O=C(CN1CCN(c2ccc(F)cc2)CC1)Nc1nccs1
Output: -1.39

Task: Using the record for COc1cc(/C=C/C(=O)O)cc(S(=O)(=O)Nc2ccccc2SC)c1OC , state its measured hERG current change (%, negative = inhibition) at 10uM.
Output: 15.5

Task: For the compound COCCCn1cnnc1SCc1nc2sc(C(C)=O)c(C)c2c(=O)[nH]1 , give its measured hERG current change (%, negative = inhibition) at 10uM value.
Output: -17

----------
target system: human ether-à-go-go-related gene (hERG) potassium channel (human, UniProt Q12809);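 also: peak tail current of the secondary pulse compared with the same well before compound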
Sequence (Q12809 whole entry, looked up): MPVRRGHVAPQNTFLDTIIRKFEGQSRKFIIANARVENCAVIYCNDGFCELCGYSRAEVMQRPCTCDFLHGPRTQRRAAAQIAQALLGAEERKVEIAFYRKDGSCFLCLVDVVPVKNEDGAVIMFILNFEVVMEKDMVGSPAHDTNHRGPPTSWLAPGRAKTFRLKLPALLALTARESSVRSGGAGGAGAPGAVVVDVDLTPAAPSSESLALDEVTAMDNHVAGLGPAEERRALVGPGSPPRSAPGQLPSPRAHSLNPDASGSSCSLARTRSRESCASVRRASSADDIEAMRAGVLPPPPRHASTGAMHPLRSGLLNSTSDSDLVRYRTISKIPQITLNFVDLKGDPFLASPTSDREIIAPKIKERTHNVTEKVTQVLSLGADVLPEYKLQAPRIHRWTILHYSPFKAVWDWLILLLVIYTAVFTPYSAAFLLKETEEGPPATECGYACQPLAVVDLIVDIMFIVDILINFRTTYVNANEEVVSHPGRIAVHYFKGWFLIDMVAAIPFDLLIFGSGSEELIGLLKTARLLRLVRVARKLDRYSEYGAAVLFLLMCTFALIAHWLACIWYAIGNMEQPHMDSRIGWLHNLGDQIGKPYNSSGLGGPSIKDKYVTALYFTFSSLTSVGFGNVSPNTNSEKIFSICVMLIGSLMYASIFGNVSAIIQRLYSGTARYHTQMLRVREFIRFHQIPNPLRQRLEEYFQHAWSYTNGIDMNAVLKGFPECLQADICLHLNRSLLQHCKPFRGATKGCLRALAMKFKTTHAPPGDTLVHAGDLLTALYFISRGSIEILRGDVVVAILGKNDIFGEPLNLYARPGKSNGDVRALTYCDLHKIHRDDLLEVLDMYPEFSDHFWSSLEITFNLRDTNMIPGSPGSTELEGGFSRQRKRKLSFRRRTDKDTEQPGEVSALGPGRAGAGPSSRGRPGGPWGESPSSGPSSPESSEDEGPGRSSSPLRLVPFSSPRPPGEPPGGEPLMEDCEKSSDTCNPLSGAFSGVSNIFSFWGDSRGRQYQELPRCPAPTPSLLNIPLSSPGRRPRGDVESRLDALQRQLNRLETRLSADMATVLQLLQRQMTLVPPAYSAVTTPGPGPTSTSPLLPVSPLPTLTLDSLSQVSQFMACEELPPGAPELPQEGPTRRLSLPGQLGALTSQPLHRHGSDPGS
assay summary: primary screen, population patch clamp on CHO cells stably expressing hERG; higher = less effect of the substance
Out of some 310,000 compounds screened, about 14,000 (4.5%) showed an effect of 50% or more. The effect is printed as a negative number. The list comes from a sample in which strong results are over-represented; it also holds close analogues and randomly drawn compounds.
Classify as follows. Reported hERG current change (%, negative = inhibition) at 10uM greater than or equal to -20%: YES. Reported hERG current change (%, negative = inhibition) at 10uM below: NO.

Recorded results for 8 molecules are shown here.
[[record]]
molecule = "CCN(CC)CCNCc1cc(Br)ccc1OCC(=O)NCc1ccccc1.Cl"
label_value = "NO"

[[record]]
molecule = "COc1ccc2c(c1)c1c3n2CCN(C)C3=NCC1.Cl"
label_value = "NO"

[[record]]
molecule = "COc1ccc2c(c1)cc(C(=O)O)n2C"
label_value = "YES"

[[record]]
molecule = "CCCCNCc1cc(Br)c(OCC(=O)NCc2ccccc2)c(OC)c1.Cl"
label_value = "NO"

[[record]]
molecule = "CCN(CC)CCNCc1ccc(Br)cc1OCC(=O)NCc1ccccc1.Cl"
label_value = "NO"

[[record]]
molecule = "COc1ccc2[nH]c3c(c2c1)CCN=C3C"
label_value = "YES"

[[record]]
molecule = "COc1ccc2c(c1)c1c(n2C(C)=O)C(OC(C)=O)=NCC1"
label_value = "YES"

[[record]]
molecule = "COc1cc(CNC(C)c2ccccc2)cc(Cl)c1OCC(=O)Nc1ccccc1.Cl (centres unmarked)"
label_value = "YES"


Task: Reported hERG current change (%, negative = inhibition) at 10uM reaches at least -20% for COC(=O)c1cc2cc(OC)ccc2n1C ?
Output: YES

Task: Evaluate CCN(CC)CCNC(=O)COc1ccc(OC)cc1.Cl : hERG current change (%, negative = inhibition) at 10uM at minimum -20%?
Output: YES

----------
target system: human ether-à-go-go-related gene (hERG) potassium channel (human, UniProt Q12809);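 also: peak tail current of the secondary pulse compared with the same well before compound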
assay summary: primary screen, population patch clamp on CHO cells stably expressing hERG; higher = less effect of the substance
The whole screen tested about 310,000 compounds, of which about 14,000 (4.5%) showed an effect of 50% or more. The effect is printed as a negative number. Shown is part of a subset that was picked to be rich in strong results.
measured property: hERG current change (%, negative = inhibition) at 10uM (%)
Report the figure in % without appending any unit label.

[[record]]
molecule = "Cn1c(=O)[nH]c(=O)c2c1nc(Br)n2Cc1cccc(Br)c1"
target_system = "human ether-à-go-go-related gene (hERG) potassium channel (human, UniProt Q12809)"
test_result = 15.1

[[record]]
molecule = "CN1CCN(c2nc3c(c(=O)[nH]c(=O)n3C)n2Cc2cccc(Br)c2)CC1"
target_system = "human ether-à-go-go-related gene (hERG) potassium channel (human, UniProt Q12809)"
test_result = -53.5

[[record]]
molecule = "CC(=O)c1ccc(OCCNS(=O)(=O)c2ccc(-n3cnnn3)c(C)c2)cc1"
target_system = "human ether-à-go-go-related gene (hERG) potassium channel (human, UniProt Q12809)"
test_result = -2.88

[[record]]
molecule = "COc1ccc(OCC(O)Cn2c(N3CCCCC3)nc3c2c(=O)[nH]c(=O)n3C)cc1 (centres unmarked)"
target_system = "human ether-à-go-go-related gene (hERG) potassium channel (human, UniProt Q12809)"
test_result = -5.73


As a next step, examine the molecule that follows.
Task: Report measured hERG current change (%, negative = inhibition) at 10uM; entry is CN1CCN(c2nc3c(c(=O)[nH]c(=O)n3C)n2Cc2ccccc2)CC1
Output: -25.4

----------
target system: human ether-à-go-go-related gene (hERG) potassium channel (human, UniProt Q12809);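 also: peak tail current of the secondary pulse compared with the same well before compound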
assay summary: primary screen, population patch clamp on CHO cells stably expressing hERG; higher = less effect of the substance
In all, about 310,000 compounds went through this assay and about 14,000 (4.5%) showed an effect of 50% or more. The effect is printed as a negative number. The sample as a whole holds a higher share of strong results than the screen did.
Measured hERG current change (%, negative = inhibition) at 10uM, listed per entry for reference.
The reply should read as a number followed by its unit.

Look over these answered cases.
[[record]]
compound = "COc1ccc(-c2cn(-c3ccccc3)c(=S)[nH]2)cc1OC"
test_result = "16.1%"

[[record]]
compound = "COc1ccc(-c2cc(=O)oc3cc(OC(C)C(=O)Nc4ccc(CN5CCOCC5)cc4)ccc23)cc1 (stereo not drawn)"
test_result = "-0.104%"

[[record]]
compound = "O=C(Cc1ccc(Cl)cc1)Nc1ccc(SC(F)F)cc1"
test_result = "-1.83%"


API: the following record is the query input.
Task: Enter recorded hERG current change (%, negative = inhibition) at 10uM with human ether-à-go-go-related gene (hERG) potassium channel (human, UniProt Q12809) for C=CCn1c(SCC(=O)NC2CC2)nnc1-c1cccc(OC)c1 here.
Output: 2.24%
